assay: Non-clinical safety benchmark dose in rats; details: rat, in vivo
measured.metric: NOAEL (mg/kg/day)
Could you give me the number in mg/kg/day? Just the number is fine.

Measured NOAEL of Cn1cnc2ccc(Oc3c(F)ccc(NS(=O)(=O)N4CC[C@@H](F)C4)c3C#N)cc2c1=O : 200

###

test: clinical; details: human, in vivo, po, 25 mg
measured.metric: half-life

molecule Cn1cnc2ccc(Oc3c(F)ccc(NS(=O)(=O)N4CC[C@@H](F)C4)c3C#N)cc2c1=O [Compound Ia] , half-life observed: 2 to 4 h
